Target: Albumin (Homo sapiens)
Sequence (P02768 whole entry): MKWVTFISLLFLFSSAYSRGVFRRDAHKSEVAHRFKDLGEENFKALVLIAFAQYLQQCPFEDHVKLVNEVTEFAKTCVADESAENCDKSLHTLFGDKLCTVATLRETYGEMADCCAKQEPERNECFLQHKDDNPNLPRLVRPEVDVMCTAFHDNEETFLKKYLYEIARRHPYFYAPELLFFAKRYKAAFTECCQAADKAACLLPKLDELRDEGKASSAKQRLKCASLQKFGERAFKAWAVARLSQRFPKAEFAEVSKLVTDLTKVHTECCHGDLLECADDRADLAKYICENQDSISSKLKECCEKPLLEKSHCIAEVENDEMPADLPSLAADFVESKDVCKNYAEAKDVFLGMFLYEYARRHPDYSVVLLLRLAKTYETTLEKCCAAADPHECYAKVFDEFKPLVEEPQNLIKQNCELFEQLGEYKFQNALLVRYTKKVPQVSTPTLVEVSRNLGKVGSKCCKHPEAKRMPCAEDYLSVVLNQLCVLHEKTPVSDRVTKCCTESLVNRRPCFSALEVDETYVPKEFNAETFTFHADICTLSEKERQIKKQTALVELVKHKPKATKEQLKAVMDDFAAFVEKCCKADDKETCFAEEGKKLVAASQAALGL
Assay: Binding affinity to human serum albumin by fluorescence based assay
READOUT_LABEL: Kd

SMILES_RECORD: COc1ccc2oc(-c3csc4ccccc34)c(O)c(=O)c2c1
RESULT: < 10 µM

* * *

Experiment: Stability of the compound in phosphate buffer assessed as compound abundance at 450 nm at 5 uM measured at pH 8 by fluorescence emission spectrum analysis
Type: physicochemical
Conditions: read-out: Stability
READOUT_LABEL: remaining at 5 µM

SMILES_RECORD: COc1ccc2oc(-c3csc4ccccc34)c(O)c(=O)c2c1
RESULT: 90 to 95%

* * *

Reported viability at 48 h is given for each of the following molecules.
Assay: Cytotoxicity against human A549 cells assessed as cell growth at […] incubated for 48 hrs by Celltiter-Glo luminescence assay relative to control
Assay type: cell-based
Parameters: dose or concentration left out as unconfirmed
Conditions: read-out: Activity

SMILES_RECORD: CCOc1c(-c2csc3ccccc23)oc2ccc(OC)cc2c1=O
viability at 48 h (%): 120

SMILES_RECORD: O=c1c(O)c(-c2csc3ccccc23)oc2cc(Cl)ccc12
viability at 48 h (%): -49.6

SMILES_RECORD: COc1ccc2oc(-c3csc4ccccc34)c(OC(C)=O)c(=O)c2c1
viability at 48 h (%): 47.3

SMILES_RECORD: Cc1csc(-c2oc3ccc(C)cc3c(=O)c2O)c1
viability at 48 h (%): 15.3

SMILES_RECORD: COc1ccc2oc(-c3cc(C)cs3)c(O)c(=O)c2c1
viability at 48 h (%): 98.8

SMILES_RECORD: Cc1csc(-c2oc3cccc(O)c3c(=O)c2O)c1
viability at 48 h (%): 56.8

SMILES_RECORD: O=c1c(O)c(-c2ccco2)oc2ccc(O)cc12
viability at 48 h (%): 104

SMILES_RECORD: CCCCC(=O)Oc1c(-c2csc3ccccc23)oc2ccc(OC)cc2c1=O
viability at 48 h (%): 12.4

SMILES_RECORD: COc1ccc2oc(-c3csc4ccccc34)c(OC(=O)N(C)C)c(=O)c2c1
viability at 48 h (%): 104

SMILES_RECORD: Cc1ccsc1-c1oc2cc(O)ccc2c(=O)c1O
viability at 48 h (%): 83.4

SMILES_RECORD: COc1ccc2oc(-c3ccco3)c(O)c(=O)c2c1
viability at 48 h (%): 106

SMILES_RECORD: COc1ccc2oc(-c3ccc4ncccc4c3)c(O)c(=O)c2c1
viability at 48 h (%): 101
